Data provenance: ChEMBL document CHEMBL4477171

experimental_system: Tyrosine-protein phosphatase non-receptor type 1 (Homo sapiens, UniProt P18031)
Sequence (P18031 whole entry): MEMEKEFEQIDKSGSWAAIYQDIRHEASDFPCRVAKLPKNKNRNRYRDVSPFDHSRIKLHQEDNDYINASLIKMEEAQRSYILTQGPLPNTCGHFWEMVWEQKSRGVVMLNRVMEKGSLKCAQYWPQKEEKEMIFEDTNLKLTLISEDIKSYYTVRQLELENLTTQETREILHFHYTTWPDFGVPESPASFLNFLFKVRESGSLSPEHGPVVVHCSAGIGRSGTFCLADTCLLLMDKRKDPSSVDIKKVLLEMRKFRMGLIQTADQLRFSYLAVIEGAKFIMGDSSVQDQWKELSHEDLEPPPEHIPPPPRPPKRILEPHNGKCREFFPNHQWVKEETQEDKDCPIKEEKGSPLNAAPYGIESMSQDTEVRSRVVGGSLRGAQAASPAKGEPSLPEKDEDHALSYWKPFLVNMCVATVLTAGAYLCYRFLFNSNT
method: Inhibition of recombinant human PTP1B preincubated for 10 mins followed by protein addition using pNPP substrate
value_type: IC50 (µM)

Examples with their reported IC50 follow.
>>> measurement("CC(C)CC(=O)OC[C@H](C)CCC[C@H](C)[C@@H]1CC[C@@H](C)c2c1cc(C(=O)O)c(O)c2O")
3.44
>>> measurement("C[C@H](CCC[C@H](C)[C@@H]1CC[C@@H](C)c2c(O)cc(C(=O)O)cc21)COC(=O)/C=C/c1ccccc1")
6.27

[a] CCCC(=O)OC[C@H](C)CCC[C@H](C)[C@@H]1CC[C@@H](C)c2c1cc(C(=O)O)c(O)c2O
[b] C[C@@H](CO)CCC[C@H](C)[C@@H]1CC[C@@H](C)c2c1cc(C(=O)O)c(O)c2O
Pick one, a or b : lowest reported IC50. Choose, then provide that item's label.
a
(a: 7.67 µM, b: 1260 µM)
